These entries and their values trace back to paper PMC12715762.

assay.name: rat oral dose escalation PK study
Assay type: in vivo
particulars: Sprague-Dawley, plasma; rat PO 10 mg/kg, 10% aqueous Tween 80 suspension
quantity.name: AUC(0-t) (ng·h/mL)
Use ng·h/mL as the unit, but write only the number.

Query: Give me measured AUC(0-t), please, for this compound: `Cn1cc2c(-c3cc(F)c(CN4Cc5ncccc5C4=O)c(F)c3)ccc(C(C)(C)O)c2n1`
Response: 23800

----------
assay.name: rat oral dose escalation PK study
Assay type: in vivo
particulars: Sprague-Dawley, rat, plasma, po, 30 mg/kg, rat PO 30 mpk, 100% PEG
quantity.name: Cmax (ng/mL)
Use ng/mL as the unit, but write only the number.

Query: Give me measured Cmax, please, for this molecule: `Cn1cc2c(-c3cc(F)c(CN4Cc5ncccc5C4=O)c(F)c3)ccc(C(C)(C)O)c2n1`
Response: 12200

----------
target.system: hERG potassium channel (Homo sapiens, UniProt Q12809)
Sequence (Q12809 whole entry): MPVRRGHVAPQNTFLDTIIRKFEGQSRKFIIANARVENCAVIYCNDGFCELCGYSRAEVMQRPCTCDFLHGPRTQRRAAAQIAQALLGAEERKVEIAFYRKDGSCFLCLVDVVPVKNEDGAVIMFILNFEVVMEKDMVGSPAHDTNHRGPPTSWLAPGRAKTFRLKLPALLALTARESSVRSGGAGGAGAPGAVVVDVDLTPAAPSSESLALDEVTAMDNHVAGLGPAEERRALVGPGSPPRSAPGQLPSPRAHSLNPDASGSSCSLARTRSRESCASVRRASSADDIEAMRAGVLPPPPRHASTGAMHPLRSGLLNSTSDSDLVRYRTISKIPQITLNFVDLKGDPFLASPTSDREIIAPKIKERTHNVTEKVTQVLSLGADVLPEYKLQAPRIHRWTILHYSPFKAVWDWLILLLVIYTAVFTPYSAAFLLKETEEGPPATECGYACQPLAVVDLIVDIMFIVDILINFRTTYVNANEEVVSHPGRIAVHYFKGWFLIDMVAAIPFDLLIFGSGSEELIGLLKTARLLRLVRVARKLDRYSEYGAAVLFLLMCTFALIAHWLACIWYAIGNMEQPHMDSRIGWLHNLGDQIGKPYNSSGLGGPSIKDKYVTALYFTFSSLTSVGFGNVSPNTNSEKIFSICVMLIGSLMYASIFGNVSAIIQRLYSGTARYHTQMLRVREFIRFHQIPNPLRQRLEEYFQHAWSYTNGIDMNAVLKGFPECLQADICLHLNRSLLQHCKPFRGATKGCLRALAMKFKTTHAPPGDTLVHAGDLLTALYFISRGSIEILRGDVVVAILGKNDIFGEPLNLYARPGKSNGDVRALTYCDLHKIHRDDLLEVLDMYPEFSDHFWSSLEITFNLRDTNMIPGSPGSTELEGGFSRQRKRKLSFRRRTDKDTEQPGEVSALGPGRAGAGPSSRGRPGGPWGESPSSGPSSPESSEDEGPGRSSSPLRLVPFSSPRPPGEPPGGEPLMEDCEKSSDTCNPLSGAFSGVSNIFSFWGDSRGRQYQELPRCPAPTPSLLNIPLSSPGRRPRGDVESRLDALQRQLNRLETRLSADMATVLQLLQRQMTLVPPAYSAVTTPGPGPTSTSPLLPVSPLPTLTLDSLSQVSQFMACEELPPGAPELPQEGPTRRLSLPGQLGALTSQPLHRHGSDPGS
assay.name: Eurofins radioligand binding
quantity.name: inhibition at 10 µM (%)
Use % as the unit, but write only the number.

Query: Give me measured inhibition at 10 µM, please, for this compound: Cn1cc2c(-c3cc(F)c(CN4Cc5ncccc5C4=O)c(F)c3)ccc(C(C)(C)O)c2n1 [compound 7]
Response: 2

----------
assay.name: 14-day rat toxicology and toxicokinetic study
Assay type: in vivo
particulars: both sexes, rat, plasma, po, 30 mg/kg, Day 14, 30 mg/kg PO, PEG-400, rat
Protocol: PAM 7, after a 250 g scale-up, advanced into 14-day rat toxicology studies, with vehicle (PEG-400), 30 mg/kg PO and 300 mg/kg PO cohorts, N = 6 per sex per cohort. […] Higher serum creatinine concentrations were however noted in males at both dose levels (+100% at 30 mg/kg/day and +300% at 300 mg/kg/day). […]
quantity.name: AUC(0-t) (µM·h)
Use µM·h as the unit, but write only the number.

Query: Give me measured AUC(0-t), please, for this molecule: `Cn1cc2c(-c3cc(F)c(CN4Cc5ncccc5C4=O)c(F)c3)ccc(C(C)(C)O)c2n1`
Response: 107

----------
target.system: rat M1 (Rattus norvegicus)
Construct: expressed in transfected cells
Sequence (P08482 whole entry): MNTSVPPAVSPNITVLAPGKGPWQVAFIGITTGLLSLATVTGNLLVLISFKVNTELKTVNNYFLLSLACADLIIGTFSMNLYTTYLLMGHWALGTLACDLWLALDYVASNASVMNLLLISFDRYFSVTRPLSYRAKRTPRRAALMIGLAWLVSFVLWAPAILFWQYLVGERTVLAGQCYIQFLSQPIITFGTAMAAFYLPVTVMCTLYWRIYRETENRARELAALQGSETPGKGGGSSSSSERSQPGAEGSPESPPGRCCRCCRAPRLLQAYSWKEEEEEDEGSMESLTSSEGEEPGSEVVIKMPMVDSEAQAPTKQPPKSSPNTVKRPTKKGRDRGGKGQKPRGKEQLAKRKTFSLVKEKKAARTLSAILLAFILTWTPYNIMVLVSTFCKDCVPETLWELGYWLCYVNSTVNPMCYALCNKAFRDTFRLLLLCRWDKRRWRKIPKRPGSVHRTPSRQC
assay.name: M1 PAM calcium mobilization assay (rat)
Type: cell-based
particulars: rat M1, n = 5; read-out: rM1 PAM EC50
Reported EC50 is given for each of the following compounds.
Use nM as the unit, but write only the number.

{"compound": "Cn1cc2c(-c3cc(F)c(CN4Cc5ncccc5C4=O)c(F)c3)ccc(C(C)(C)O)c2n1", "EC50, nM": 78}

Now look at this one.
Query: Give me measured EC50, please, for this compound: Cn1cc2c(-c3cc(F)c(CN4Cc5ncccc5C4=O)c(F)c3)cccc2n1 [compound 1, reference compound]
Response: 398

----------
assay.name: IV/PO pharmacokinetics (NHP)
Assay type: in vivo
particulars: cynomolgus monkey, plasma; NHP (cyno), 1 mg/kg iv; read-out: Vss
quantity.name: Vd (L/kg)
Use L/kg as the unit, but write only the number.

Query: Give me measured Vd, please, for this molecule: `Cn1cc2c(-c3cc(F)c(CN4Cc5ncccc5C4=O)c(F)c3)ccc(C(C)(C)O)c2n1`
Response: 1.5

----------
target.system: CYP 1A2 (Homo sapiens, UniProt P05177)
Sequence (P05177 1-516): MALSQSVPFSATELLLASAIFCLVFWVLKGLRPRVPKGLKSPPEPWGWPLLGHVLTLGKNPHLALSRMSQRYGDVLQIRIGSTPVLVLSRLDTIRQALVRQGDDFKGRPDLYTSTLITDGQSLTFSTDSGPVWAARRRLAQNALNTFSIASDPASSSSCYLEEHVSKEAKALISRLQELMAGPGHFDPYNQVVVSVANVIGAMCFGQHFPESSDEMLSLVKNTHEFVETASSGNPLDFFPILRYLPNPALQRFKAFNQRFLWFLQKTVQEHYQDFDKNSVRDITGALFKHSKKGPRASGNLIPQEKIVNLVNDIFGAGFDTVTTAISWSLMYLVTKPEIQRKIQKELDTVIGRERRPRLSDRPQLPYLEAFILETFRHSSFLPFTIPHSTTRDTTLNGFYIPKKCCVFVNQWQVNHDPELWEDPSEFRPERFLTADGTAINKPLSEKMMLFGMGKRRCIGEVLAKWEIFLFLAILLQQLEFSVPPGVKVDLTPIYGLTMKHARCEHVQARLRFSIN
quantity.name: pIC50
For clarity, pIC50 is expressed as the negative log10 of concentration in mol/L.

Query: Give me measured pIC50, please, for this molecule: Cn1cc2c(-c3cc(F)c(CN4Cc5ncccc5C4=O)c(F)c3)cccc2n1 [compound 1, reference compound]
Response: 4.85
